# System: 769-P
# experiment_summary: minimum viability across doses, drug + dasatinib, relative to DMSO (fraction); higher = less growth inhibition
# conditions_used: treatment: drug + dasatinib (fixed dose, not stated); 5 days
Please use the following minimum viability across doses ranges when assigning a class: LOW = under 0.1, MEDIUM = from 0.1 up to 0.6, HIGH = 0.6 and over

{"compound": "Br.Cc1ccc(C(=O)Cn2c3c(sc2=N)CCCC3)cc1 [Pifithrin-α] + Cc1nc(Nc2ncc(C(=O)Nc3c(C)cccc3Cl)s2)cc(N2CCN(CCO)CC2)n1 [dasatinib]", "system_name": "769-P", "group": "HIGH"}
{"compound": "CCn1nnc2c(N3CCOCC3)nc(-c3ccc(NC(=O)Nc4ccc(C(=O)N5CCN(C)CC5)cc4)cc3)nc21 [PKI-402] + Cc1nc(Nc2ncc(C(=O)Nc3c(C)cccc3Cl)s2)cc(N2CCN(CCO)CC2)n1 [dasatinib]", "system_name": "769-P", "group": "LOW"}
{"compound": "OCCn1cc(-c2cnc3nnn(Cc4ccc5ncccc5c4)c3n2)cn1 + Cc1nc(Nc2ncc(C(=O)Nc3c(C)cccc3Cl)s2)cc(N2CCN(CCO)CC2)n1 [dasatinib]", "system_name": "769-P", "group": "HIGH"}
{"compound": "Cc1ccc(F)c(NC(=O)Nc2ccc(-c3cccc4[nH]nc(N)c34)cc2)c1 [Linifanib (ABT-869)] + Cc1nc(Nc2ncc(C(=O)Nc3c(C)cccc3Cl)s2)cc(N2CCN(CCO)CC2)n1 [dasatinib]", "system_name": "769-P", "group": "MEDIUM"}
{"compound": "COC(=O)Nc1ccc(-c2nc(N3CCOCC3)c3cnn(C4CCN(C(=O)OC)CC4)c3n2)cc1 [WYE-354] + Cc1nc(Nc2ncc(C(=O)Nc3c(C)cccc3Cl)s2)cc(N2CCN(CCO)CC2)n1 [dasatinib]", "system_name": "769-P", "group": "MEDIUM"}
{"compound": "COc1ccc2c(Oc3ccc(NC(=O)c4c(C)n(CC(C)(C)O)n(-c5ccccc5)c4=O)nc3)ccnc2c1 [AMG458] + Cc1nc(Nc2ncc(C(=O)Nc3c(C)cccc3Cl)s2)cc(N2CCN(CCO)CC2)n1 [dasatinib]", "system_name": "769-P", "group": "MEDIUM"}
{"compound": "CCn1c(-c2nonc2N)nc2c(C#CC(C)(C)O)ncc(OC[C@H]3CCCNC3)c21 + Cc1nc(Nc2ncc(C(=O)Nc3c(C)cccc3Cl)s2)cc(N2CCN(CCO)CC2)n1 [dasatinib]", "system_name": "769-P", "group": "HIGH"}
{"compound": "CN(C)Cc1cccc(N/C(=C2\\C(=O)Nc3cc(C(=O)N(C)C)ccc32)c2ccccc2)c1 + Cc1nc(Nc2ncc(C(=O)Nc3c(C)cccc3Cl)s2)cc(N2CCN(CCO)CC2)n1 [dasatinib]", "system_name": "769-P", "group": "MEDIUM"}
{"compound": "Cc1ccc(C(=O)Nc2cccc(C(F)(F)F)c2)cc1Nc1nc(-c2cccnc2)nc2c1cnn2C [NVP-BHG712] + Cc1nc(Nc2ncc(C(=O)Nc3c(C)cccc3Cl)s2)cc(N2CCN(CCO)CC2)n1 [dasatinib]", "system_name": "769-P", "group": "LOW"}
{"compound": "COc1cc(Nc2c(C#N)cnc3cc(OCCCN4CCN(C)CC4)c(OC)cc23)c(Cl)cc1Cl [Bosutinib (SKI-606)] + Cc1nc(Nc2ncc(C(=O)Nc3c(C)cccc3Cl)s2)cc(N2CCN(CCO)CC2)n1 [dasatinib]", "system_name": "769-P", "group": "MEDIUM"}
{"compound": "N#CCNC(=O)c1ccc(-c2ccnc(Nc3ccc(N4CCOCC4)cc3)n2)cc1 [Cyt387] + Cc1nc(Nc2ncc(C(=O)Nc3c(C)cccc3Cl)s2)cc(N2CCN(CCO)CC2)n1 [dasatinib]", "system_name": "769-P", "group": "MEDIUM"}
{"compound": "Nc1ccc(C(=O)Nc2cccc(-c3nc(N4CCOCC4)c4oc5ncccc5c4n3)c2)cn1 + Cc1nc(Nc2ncc(C(=O)Nc3c(C)cccc3Cl)s2)cc(N2CCN(CCO)CC2)n1 [dasatinib]", "system_name": "769-P", "group": "LOW"}
